- experiment.notes: Inhibition of HIV gp41 hexamer bundle formation by ELISA
- Design: species or system Human immunodeficiency virus
assay.endpoint: pIC50
Reminder that pIC50 means the negative base-10 logarithm of the concentration expressed in mol/L.

Sure, the documented pIC50 for O=C(O)c1ccc(-c2c3nc(c(-c4ccc(C(=O)O)cc4)c4ccc([nH]4)c(-c4ccc(C(=O)O)cc4)c4ccc([nH]4)c(-c4ccc(C(=O)O)cc4)c4nc2C=C4)C=C3)cc1 is 6.00

Where do the numbers come from? From ChEMBL document CHEMBL1155181.
